# Tested on: CP194
# Test Method Notes: qHTS profiling for inhibitors of Plasmodium falciparum proliferation (AID 504749); also: nearly all actives have a fitted effect of over 60% in size
# Assay Context: P. falciparum in erythrocytes, SYBR Green DNA, 72 h; series mostly up to 28.7 µM
# Experimental: NIH National Institute of Allergy and Infectious Diseases [NIAID] NIH Chemical Genomics Center [NCGC] […] Because mature erythrocytes lack DNA, only Plasmodium-derived DNA is detected. NCGC Assay Protocol Summary: The SYBR Green viability assay was adapted from a method described previously (Plouffe et al., 2008). […] The following morning, fluorescence intensity at 485(14) nm excitation and 535(25) nm emission wavelengths was measured on an EnVision (Perkin Elmer) plate reader. […]
Records with an inconclusive call do not appear. Active and inactive are the calls of the source. Calls follow the shape of the dose curve; as a rule, active = well fitted inhibition curve with a large enough effect; inconclusive = small, poorly fitted or top-dose-only effect; inactive = flat fitted curve, though single readings scatter.
Choose the fitting class; nothing outside Yes = active, No = inactive is accepted.

CC[C@@]1(O)C(=O)OCc2c1cc1n(c2=O)Cc2cc3c(CN(C)C)c(O)ccc3nc2-1 :: Yes
CCOC(=O)C(C)(C)Oc1ccc(Cl)cc1 :: No

Shift focus to the following entry.
Q. Look up the recorded call for CN(CCOc1ccc(NS(C)(=O)=O)cc1)CCc1ccc(NS(C)(=O)=O)cc1 in this test.
A. No
